- assayed_system: Gag-Pol polyprotein [588-1127,L687I]/[588-1147,L687I] (Human immunodeficiency virus 1, UniProt P04585, L687I)
- Construct: 588-1127; 588-1147
- procedure_summary: HIV-1 RT Assay
parameter_measured: IC50

COc1ccc2[nH]cc(CC/N=C(\S)Nc3ccc(Br)cn3)c2c1 :: > 2.5 µM
S=C(NCCc1c[nH]c2ccccc12)Nc1ccc(Br)cn1 :: > 2.5 µM
Cc1cc2nn(CCNC(=S)Nc3ccc(Br)cn3)nc2cc1C :: > 2.5 µM
CC(C)=CCN1Cc2cc(Cl)cc3[nH]c(=S)n(c23)C[C@@H]1C :: 32.2 µM
CCOc1ccc(F)c(CCNC(=S)Nc2ncc(C(F)(F)F)s2)c1Cl :: 7 µM

Please look at the following compound next.
Lab book: IC50 of `S=C(NCCc1nc2ccccc2[nH]1)Nc1ccc(Br)cn1` noted as > 2.5 µM
